- test-method-notes: PSAC antagonists in infected red cells, primary screen, cell-based, P. falciparum Indochina, OD700, 2 h (AID 1155);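 note: lysis reports solute entry through the parasite surface anion channel PSAC; channel blockers reduce lysis of infected cells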
- particulars: P. falciparum Indochina infected erythrocytes, osmotic lysis OD700, called active from +8 up or from −8 down
Activity calls are given as the source filed them.
In this exercise, the only acceptable responses are 1 (yes) for active, 0 (no) for inactive

* COCCOC(=O)N1C(=O)[C@@]2(c3ccccc31)[C@H](c1ccc(O)cc1)N1[C@H](c3ccccc3)[C@H](c3ccccc3)OC(=O)[C@H]1[C@@H]2C(=O)Nc1nc2ccccc2s1 | 0 (no)
* O=C1[C@@]23C=C(Br)[C@H](C[C@@H]2CCOC3)[C@@]12CO2 | 0 (no)
* CCOC(=O)C1=CC[C@@H](c2ccccc2)N(S(=O)(=O)c2ccc(C)cc2)[C@H]1c1ccccc1C | 0 (no)

Kindly review the next compound as well.
Ask | Check the results log: what was the call for C=CC[C@@]12N=C(c3ccc(OCCCO)cc3)O[C@@H]1c1ccccc1N(C)C2=O ?
Reply | 1 (yes)

Taken from PubChem BioAssay.
